# Lookup of reported inhibition keyed by entry
System: Human immunodeficiency virus type 1 BH10
Assay name: Inhibition of wild type recombinant HIV-1 subtype B BH10 p66/p51 reverse transcriptase heterodimer expressed in Escherichia coli BL21 (DE3) assessed as inhibition of dTTP incorporation on poly(rA)-oligo(dT) template primer duplex at 100 uM preincubated with enzyme for 2 mins followed by incubation with poly(A)-oligo(dT) templates for 2 hrs by flourescence assay method
Reported conditions: time 122.0 min
// note: answer is a bare numeric in %

Reference set, count: 2
> print(dat)
                      molecule  property.measured  val
1  O=C1CN(C(=O)CCCl)c2ccccc2N1         inhibition   26
2     CC(=O)N1CC(=O)Nc2ccccc21         inhibition   56

Q. Given CC(C)COC(=O)N1CC(=O)Nc2ccccc21 , respond with its inhibition.
A. 46

Q. Please report the measured inhibition for Cc1ccnc2c1NC(=O)c1cccnc1N2C1CC1
A. 98

Q. Note down inhibition recorded for O=C1CN(C(=O)CCl)c2ccccc2N1
A. 32

Q. Item CC(C)COC(=O)N1c2ccccc2NC(=O)[C@@H]1C : provide inhibition
A. 64

Q. Indicate the recorded inhibition value for this compound: COC(=O)CCc1nc2ccccc2nc1O
A. 23

* * *

Assay name: Anti-HIV-1 activity against HTLV-3B infected in human MT2 cells assessed as reduction in syncytium formation by measuring reduction in p24 antigen production measured after 4 days by ELISA method
Format: functional, cell-based
Reported conditions: Human immunodeficiency virus 1, HTLV-3B, MT2, 96 h
Property measured: pEC50
Please note pEC50 is a logarithmic value: minus log10 of concentration in mol/L. Answer with that number alone.

// worked examples, pEC50 included
> print(dat)
                                   molecule   val
1      CC(C)COC(=O)N1c2ccccc2NC(=O)[C@@H]1C  5.80
2  Cc1ccnc2c1NC(=O)c1cccnc1N2C1CC1 [NEVIRAPINE]  8.17

Please find the next molecule below.
Q. Provide measured pEC50 value, entry: CCC(=O)N1CC(=O)Nc2ccccc21
A. 8.51

* * *

System: Human immunodeficiency virus type 1 BH10
Assay name: Inhibition of wild type recombinant HIV-1 subtype B BH10 p66/p51 reverse transcriptase heterodimer expressed in Escherichia coli BL21 (DE3) assessed as inhibition of dTTP incorporation on poly(rA)-oligo(dT) template primer duplex at 100 uM preincubated with enzyme for 2 mins followed by incubation with poly(A)-oligo(dT) templates for 2 hrs by flourescence assay method
Reported conditions: time 122.0 min
Property measured: inhibition (%)
Give the value in % but do not write % after it.

Recorded results for 5 compounds are shown here.
> print(dat)
                           molecule  unit.of.measure  val
1          Oc1nc2ccccc2nc1Cc1ccccc1                %   26
2         CCOC(=O)CCc1nc2ccccc2nc1O                %   12
3         CC(C)Cc1nc2ccccc2[nH]c1=O                %   73
4      CC(C)OC(=O)CCc1nc2ccccc2nc1O                %   25
5  C[C@H]1C(=O)Nc2ccccc2N1C(=O)CCCl                %   28

Q. Read off the recorded inhibition for Oc1nc2ccccc2nc1O
A. 1

Q. Give a short answer stating reported inhibition for O=C1CN(C(=O)c2ccccc2)c2ccccc2N1 .
A. 33

Q. Give me measured inhibition, please, for this compound: CC(C)COC(=O)N1c2ccccc2NC(=O)[C@@H]1CC(C)C
A. 51

Q. Return value of inhibition for input O=C(O)CCc1nc2ccccc2[nH]c1=O , no commentary.
A. 15

Q. Using the record for O=C1CN(S(=O)(=O)c2ccccc2)c2ccccc2N1 , state its measured inhibition.
A. 12

Q. Identify the reported inhibition for the following entry. CC(C)C[C@H]1C(=O)Nc2ccccc2N1C(=O)CCCl
A. 20

Q. Please supply the value of reported inhibition for the item CC(C)[C@H]1C(=O)Nc2ccccc2N1C(=O)CCCl
A. 7

Q. Please list inhibition recorded for the compound CC(C)OC(=O)N1CC(=O)Nc2ccccc21
A. 19

Q. Write down inhibition measured for item Cc1nc2ccccc2nc1O
A. 1

Q. Fill in inhibition for record CCC(=O)N1CC(=O)Nc2ccccc21
A. 99

* * *

System: Human immunodeficiency virus type 1 BH10
Assay name: Inhibition of recombinant HIV-1 subtype B BH10 p66/p51 reverse transcriptase heterodimer K103N mutant assessed as inhibition of dTTP incorporation on poly(rA)-oligo(dT) template primer duplex at 50 uM preincubated with enzyme for 2 mins followed by incubation with poly(A)-oligo(dT) templates for 2 hrs by flourescence assay method
Reported conditions: time 122.0 min
Property measured: inhibition (%)
Write the value in % as a bare number.

Before answering, review these 4 worked examples.
> print(dat)
                               molecule                             tested.target  unit.of.measure  val
1             CC(C)Cc1nc2ccccc2[nH]c1=O  Human immunodeficiency virus type 1 BH10                %    5
2  CC(C)COC(=O)N1c2ccccc2NC(=O)[C@@H]1C  Human immunodeficiency virus type 1 BH10                %   13
3             CCC(=O)N1CC(=O)Nc2ccccc21  Human immunodeficiency virus type 1 BH10                %   47
4       Cc1ccnc2c1NC(=O)c1cccnc1N2C1CC1  Human immunodeficiency virus type 1 BH10                %   50

Q. For the compound CC(C)COC(=O)N1c2ccccc2NC(=O)[C@@H]1CC(C)C , give its reported inhibition.
A. 20

* * *

Assay name: Cytotoxicity against human MT2 cells assessed as reduction in cell viability measured after 4 days by Trypan blue assay
Assay type: cell-based
Reported conditions: time 4 day
Property measured: CC50 at 96 h (µM)
Give just the number in µM; leave the unit off.

Solved cases (4 shown):
> print(dat)
                               compound  property.measured   val
1             CCC(=O)N1CC(=O)Nc2ccccc21       CC50 at 96 h  98.6
2        CC(C)COC(=O)N1CC(=O)Nc2ccccc21       CC50 at 96 h   262
3             CC(C)Cc1nc2ccccc2[nH]c1=O       CC50 at 96 h   134
4  CC(C)COC(=O)N1c2ccccc2NC(=O)[C@@H]1C       CC50 at 96 h   117

Q. Using the record for Cc1ccnc2c1NC(=O)c1cccnc1N2C1CC1 [NEVIRAPINE] , state its measured CC50 at 96 h.
A. 96.2

* * *

System: Human immunodeficiency virus type 1 BH10
Assay name: Inhibition of wild type recombinant HIV-1 subtype B BH10 p66/p51 reverse transcriptase heterodimer expressed in Escherichia coli BL21 (DE3) assessed as inhibition of dTTP incorporation on poly(rA)-oligo(dT) template primer duplex at 100 uM preincubated with enzyme for 2 mins followed by incubation with poly(A)-oligo(dT) templates for 2 hrs by flourescence assay method
Reported conditions: time 122.0 min
Property measured: inhibition (%)
Give a bare numeral; the unit % is implied.

Reference set, count: 2
> print(dat)
                              molecule  property.measured  val
1          C[C@H]1CNc2ccccc2N1C(=O)CCl         inhibition    8
2  CC(C)[C@H]1C(=O)Nc2ccccc2N1C(=O)CCl         inhibition   12

Q. Recall and state the measured inhibition for CCC(=O)N1c2ccccc2NC(=O)[C@@H]1C .
A. 23

Q. Report inhibition for CC(C)c1nc2ccccc2[nH]c1=O
A. 17

Every entry's value here was drawn from ChEMBL document CHEMBL4765246.
